Values were extracted from patent US10654818B2.

Target: recombinant, N-terminally GST-tagged ATAD2 bromodomain amino acids 981-1108 (Homo sapiens)
Construct: ATAD2 bromodomain amino acids 981-1108
Sequence (Q6PL18 981-1108): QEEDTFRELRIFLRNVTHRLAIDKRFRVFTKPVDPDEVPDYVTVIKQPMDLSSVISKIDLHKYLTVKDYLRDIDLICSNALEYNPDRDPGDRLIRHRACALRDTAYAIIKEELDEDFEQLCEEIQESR
Assay: TR-FRET assay: disruption of the interaction between ATAD2 and acetylated Histone H4 (Ac-H4) peptide
Settings: inhibition of ATAD2/Ac-H4 complex formation; 10 nM ATAD2, 50 nM Ac-H4 peptide
Each entry below carries its reported pIC50.
Scale explanation: pIC50 corresponds to minus log10 of a concentration expressed in moles per litre.

# compound, pIC50
rows = [
    ("Cc1ccc([C@@H](C)NCc2ccc(-c3ccc(Cl)c(C(=O)N[C@@H](CO)Cc4cc(F)c(C#N)cc4C)c3)o2)cc1", 6.44),
]

Query :: Field request: pIC50 | item: Cc1ccc([C@@H](C)NCc2ccc(-c3ccc(Cl)c(C(=O)N[C@H]4CNCC[C@H]4c4ccc(C#N)cc4)c3)o2)cc1 (stereo in doubt)
Result :: 6.36

* * *

target: recombinant, N-terminally GST-tagged ATAD2 bromodomain amino acids 981-1108 (Homo sapiens, UniProt Q6PL18); construct: ATAD2 bromodomain amino acids 981-1108; assay: TR-FRET assay: disruption of the interaction between ATAD2 and acetylated Histone H4 (Ac-H4) peptide; conditions: inhibition of ATAD2/Ac-H4 complex formation; 10 nM ATAD2, 50 nM Ac-H4 peptide
endpoint label: log10(IC50) (log10 of the value in nM)
Heads up, the numbers here are log10 of IC50 in nM units.

# compound, log10(IC50)
rows = [
    ("Cc1ccc([C@@H](C)NCc2ccc(-c3ccc(Cl)c(C(=O)N[C@@H](CCN4CCOCC4)Cc4ccc(C#N)cc4)c3)o2)cc1", 2.83),
    ("Cc1ccc([C@@H](C)NCc2ccc(-c3ccc(Cl)c(C(=O)N[C@@H](CNC4CCN(Cc5ccccc5)CC4)Cc4ccc(C#N)cc4)c3)o2)cc1", 2.80),
    ("Cc1ccc([C@@H](C)NCc2ccc(-c3ccc(Cl)c(C(=O)N[C@@H](CO)Cc4cccc(C#N)c4)c3)o2)cc1", 3.20),
    ("CNC(=O)C[C@@H](Cc1ccccc1)NC(=O)c1cc(-c2ccc(CN[C@H](C)c3ccc(C)cc3)o2)ccc1Cl", 3.92),
]

Query :: Field request: log10(IC50) | item: `COc1cc(Cl)c(C(=O)N[C@H](Cc2ccc(C#N)cc2)C(=O)N[C@H]2CC[C@H](N)CC2)cc1-c1ccc(CN[C@H](C)c2ccc(C)cc2)o1`
Result :: 2.62

Query :: Field request: log10(IC50) | item: `Cc1ccc([C@@H](C)NCc2ccc(-c3ccc(Cl)c(C(=O)N[C@H](Cc4ccc(C#N)cc4)CN4CCN(C)CC4)c3)o2)cc1`
Result :: 2.76

Query :: Field request: log10(IC50) | item: Cc1ccc([C@@H](C)NCc2ccc(-c3ccc(Cl)c(C(=O)N[C@@H](CN[C@H]4CC[C@@H](N)CC4)Cc4ccc(C#N)cc4)c3)o2)cc1 (single isomer, unassigned) [Example 71]
Result :: 2.03

Query :: Field request: log10(IC50) | item: `Cc1ccc([C@@H](C)NCc2ccc(-c3ccc(Cl)c(C(=O)N[C@@H](CC(=O)NC(C)C)Cc4ccc(C#N)cc4)c3)o2)cc1`
Result :: 2.82

* * *

Molecular target: recombinant, N-terminally GST-tagged ATAD2 bromodomain amino acids 981-1108 (Homo sapiens)
Construct: ATAD2 bromodomain amino acids 981-1108
Test: TR-FRET assay: disruption of the interaction between ATAD2 and acetylated Histone H4 (Ac-H4) peptide
Conditions: inhibition of ATAD2/Ac-H4 complex formation; 10 nM ATAD2, 50 nM Ac-H4 peptide
Experimental: The ability of the compounds described in the present invention to disrupt the interaction between ATAD2 and acetylated Histone H4 (Ac-H4) was used as quantitative measure of their ATAD2-binding affinities. […] The mixture was further incubated in the dark for 1 hour at 22° C. Finally the inhibition of the formation of ATAD2/Ac-H4 complexes was assessed by measurement of the resonance energy transfer from the Streptavidin-Eu-Chelate to the anti-GST-XL665 antibody present in the reaction. […]
I'd appreciate it if you marked entries y when IC50 is lower than 500 nM and n when it is not.

# molecule, system tested, cat
data = [
    ("Cc1ccc([C@@H](C)NCc2ccc(-c3ccc(Cl)c(C(=O)N[C@H](Cc4ccc(C#N)cc4)C(C)(C)O)c3)o2)cc1", "recombinant, N-terminally GST-tagged ATAD2 bromodomain amino acids 981-1108 (Homo sapiens)", "n"),
    ("Cc1ccc([C@@H](C)NCc2ccc(-c3ccc(Cl)c(C(=O)N[C@@H](CCN[C@H]4CCN(C)C4)Cc4ccc(C#N)cc4)c3)o2)cc1", "recombinant, N-terminally GST-tagged ATAD2 bromodomain amino acids 981-1108 (Homo sapiens)", "y"),
]

Query :: For `COC(=O)c1ccc(C[C@H](CO)NC(=O)c2cc(-c3ccc(CN[C@H](C)c4ccc(C)cc4)o3)ccc2Cl)cc1` , is the recorded IC50 below the cut-off of 500 nM?
Result :: n

Query :: For `COc1cc(Cl)c(C(=O)N[C@@H](CO)Cc2ccc(C#N)c(C)c2)cc1-c1ccc(CN[C@H](C)c2ccc(C)cc2)o1` , is the recorded IC50 below the cut-off of 500 nM?
Result :: y

Query :: For `Cc1ccc([C@@H](C)NCc2ccc(-c3cc(F)c(Cl)c(C(=O)N[C@@H](CO)Cc4ccc(C#N)cc4)c3)o2)cc1` , is the recorded IC50 below the cut-off of 500 nM?
Result :: n

Query :: For `CNC(=O)[C@@H](Cc1ccc(C#N)cc1)NC(=O)c1cc(-c2ccc(CN[C@H](C)c3ccc(C)cc3)o2)ccc1Cl` , is the recorded IC50 below the cut-off of 500 nM?
Result :: n

* * *

molecular target: recombinant, N-terminally GST-tagged ATAD2 bromodomain amino acids 981-1108 (Homo sapiens, UniProt Q6PL18); construct: ATAD2 bromodomain amino acids 981-1108; assay: TR-FRET assay: disruption of the interaction between ATAD2 and acetylated Histone H4 (Ac-H4) peptide; settings: inhibition of ATAD2/Ac-H4 complex formation; 10 nM ATAD2, 50 nM Ac-H4 peptide
I'd appreciate it if you marked entries 1.0 when IC50 is lower than 1000 nM and 0.0 when it is not.

Worked set:
# molecule, cat
measured = [
    ("Cc1ccc([C@@H](C)NCc2ccc(-c3ccc(Cl)c(C(=O)N[C@H](Cc4ccc(C#N)cc4)[C@H](O)CC(C)C)c3)o2)cc1", 0.0),
    ("Cc1ccc([C@@H](C)NCc2ccc(-c3ccc(Cl)c(C(=O)N[C@@H](CO)Cc4ccccc4)c3)o2)cc1", 0.0),
    ("COC(=O)C[C@@H](Cc1ccc(C#N)cc1)NC(=O)c1cc(-c2ccc(CN[C@H](C)c3ccc(C)cc3)o2)ccc1Cl", 0.0),
    ("Cc1ccc([C@@H](C)NCc2ccc(-c3ccc(Cl)c(C(=O)N[C@@H](CC(N)=O)Cc4ccc(C#N)cc4)c3)o2)cc1", 1.0),
    ("CNC(=O)C[C@@H](Cc1ccc(C#N)cc1)NC(=O)c1cc(-c2ccc(CNC(C)(C)c3ccc(C)cc3)o2)ccc1Cl", 0.0),
]

Query :: For `Cc1ccc([C@@H](C)NCc2ccc(-c3ccc(Cl)c(C(=O)N[C@@H](CNC(=O)CC4CCNCC4)Cc4ccc(C#N)cc4)c3)o2)cc1` , is the recorded IC50 below the cut-off of 1000 nM?
Result :: 1.0

* * *

Target: recombinant, N-terminally GST-tagged ATAD2 bromodomain amino acids 981-1108 (Homo sapiens, UniProt Q6PL18)
Construct: ATAD2 bromodomain amino acids 981-1108
Assay: TR-FRET assay: disruption of the interaction between ATAD2 and acetylated Histone H4 (Ac-H4) peptide
Details: inhibition of ATAD2/Ac-H4 complex formation; 10 nM ATAD2, 50 nM Ac-H4 peptide
Procedure: The ability of the compounds described in the present invention to disrupt the interaction between ATAD2 and acetylated Histone H4 (Ac-H4) was used as quantitative measure of their ATAD2-binding affinities. […] The mixture was further incubated in the dark for 1 hour at 22° C. Finally the inhibition of the formation of ATAD2/Ac-H4 complexes was assessed by measurement of the resonance energy transfer from the Streptavidin-Eu-Chelate to the anti-GST-XL665 antibody present in the reaction. […]
Each entry below carries its reported pIC50.
Scale explanation: pIC50 corresponds to minus log10 of a concentration expressed in moles per litre.

Answered cases to consult:
# compound, pIC50
data = [
    ("Cc1ccc([C@@H](C)NCc2ccc(-c3ccc(Cl)c(C(=O)N[C@H](Cc4ccc(C#N)cc4)CN4CCOCC4)c3)o2)cc1", 6.07),
    ("Cc1ccc([C@@H](C)NCc2ccc(-c3ccc(Cl)c(C(=O)N[C@@H](CNCC(=O)N4CCNCC4)Cc4ccc(C#N)cc4)c3)o2)cc1", 6.56),
    ("Cc1ccc([C@@H](C)NCc2ccc(-c3ccc(Cl)c(C(=O)N[C@@H](CC(=O)N4CCCC4)Cc4ccc(C#N)cc4)c3)o2)cc1", 6.13),
    ("COc1cc(Cl)c(C(=O)N[C@@H](CN[C@H]2CC[C@@H](N)CC2)Cc2ccc(C#N)c(C)c2)cc1-c1ccc(CN[C@H](C)c2ccc(C)cc2)o1", 6.89),
    ("Cc1ccc([C@@H](C)NCc2ccc(-c3ccc(Cl)c(C(=O)N[C@@H](CNC4CCNC(C)(C)C4)Cc4ccc(C#N)cc4)c3)o2)cc1 (mixture of isomers)", 6.96),
]

Query :: Field request: pIC50 | item: `Cc1ccc([C@@H](C)NCc2ccc(-c3ccc(Cl)c(C(=O)N[C@@H](CO)Cc4ccc(I)cc4)c3)o2)cc1`
Result :: 5.95

Query :: Field request: pIC50 | item: `Cc1ccc([C@@H](C)NCc2ccc(-c3ccc(Cl)c(C(=O)N[C@@H](CC(=O)NCCCO)Cc4ccc(C#N)cc4)c3)o2)cc1`
Result :: 6.05

Query :: Field request: pIC50 | item: CC(C)(NCc1ccc(-c2ccc(Cl)c(C(=O)NC(Cc3ccc(C#N)cc3)C(N)=O)c2)o1)c1ccc(Cl)cc1 (centres unmarked)
Result :: 5.55
